Biological target: acetylcholine receptor (Homo sapiens, UniProt P02708)
Sequence (P02708 21-457): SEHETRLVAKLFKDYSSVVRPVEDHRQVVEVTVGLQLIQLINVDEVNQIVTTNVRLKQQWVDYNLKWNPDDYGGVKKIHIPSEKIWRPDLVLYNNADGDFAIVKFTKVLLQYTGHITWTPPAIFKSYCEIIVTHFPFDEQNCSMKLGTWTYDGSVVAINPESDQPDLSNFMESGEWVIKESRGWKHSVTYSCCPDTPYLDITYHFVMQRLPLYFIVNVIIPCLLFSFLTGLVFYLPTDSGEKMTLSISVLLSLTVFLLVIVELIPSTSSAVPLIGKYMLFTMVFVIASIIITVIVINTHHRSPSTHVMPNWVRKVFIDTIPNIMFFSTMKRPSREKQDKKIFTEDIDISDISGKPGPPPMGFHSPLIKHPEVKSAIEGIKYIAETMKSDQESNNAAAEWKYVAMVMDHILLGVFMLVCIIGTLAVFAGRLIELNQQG
Experiment: SPR binding affinity (RU) of optimized 5mer/6mer/7mer peptides, Examples 6-7
Conditions: SPR, Resonance Units; peptides tested at 10 μM; 6mer-1 Bottom sequence (Table 11)
parameter: Binding affinity (Ru)
// units = Ru; emit number, no label

Known results for substances:
{"columns": ["substance", "parameter", "quantitative-result"],
 "data": [
  ["6mer-1-610 (KKHHER)", "Binding affinity", 27],
  ["6mer-1-672 (RKMEIR)", "Binding affinity", 17]
]}

query: Requested read-out Binding affinity, target or system acetylcholine receptor (Homo sapiens, UniProt P02708), entry 6mer-1-735 (RKDKER)
result: 19

query: Write down the reported Binding affinity of 6mer-1-727 (RKANGK) , test system: acetylcholine receptor (Homo sapiens, UniProt P02708).
result: 29

query: # returns recorded Binding affinity (system: acetylcholine receptor (Homo sapiens, UniProt P02708)) for 6mer-1-766 (RKCTIR)
result: 15

query: Provide the documented Binding affinity with acetylcholine receptor (Homo sapiens, UniProt P02708) as the system for 6mer-1-623 (RRTDWR)
result: 21

query: Which Binding affinity is reported with acetylcholine receptor (Homo sapiens, UniProt P02708) for this entry: 6mer-1-616 (KKNTIK) ?
result: 31

query: Lab note: need Binding affinity with acetylcholine receptor (Homo sapiens, UniProt P02708) for entry 6mer-1-663 (KKFKDR) , please look it up.
result: 26

query: What reported Binding affinity corresponds to 6mer-1-773 (KRTEIR) on acetylcholine receptor (Homo sapiens, UniProt P02708)?
result: 29

query: API: value(readout= Binding affinity, system= acetylcholine receptor (Homo sapiens, UniProt P02708), query= 6mer-1-635 (KKTTWK) )
result: 33

query: Param readout= Binding affinity; system= acetylcholine receptor (Homo sapiens, UniProt P02708); entry= 6mer-1-626 (KRPDNR) ; returns value.
result: 27

query: Notebook entry, acetylcholine receptor (Homo sapiens, UniProt P02708) assay: Binding affinity of 6mer-1-639 (KRPNVR) = ?
result: 24

query: So what Binding affinity did 6mer-1-724 (KRPKNK) get with acetylcholine receptor (Homo sapiens, UniProt P02708)?
result: 19

query: Please tell me: Binding affinity of 6mer-1-793 (KKTPNR) , system acetylcholine receptor (Homo sapiens, UniProt P02708)?
result: 31

query: Lab note: need Binding affinity for 6mer-1-650 (RRCNNR) on acetylcholine receptor (Homo sapiens, UniProt P02708), anyone have it?
result: 18

query: What is its Binding affinity for acetylcholine receptor (Homo sapiens, UniProt P02708)? Entry: 6mer-1-665 (KKCDGK)
result: 21

query: Please provide the recorded Binding affinity for 6mer-1-734 (RRTHER) , tested on acetylcholine receptor (Homo sapiens, UniProt P02708).
result: 21

query: Lab note: need Binding affinity with acetylcholine receptor (Homo sapiens, UniProt P02708) for entry 6mer-1-796 (RRHAFK) , please look it up.
result: 28

query: Any idea what Binding affinity came out for 6mer-1-787 (KKESIK) on acetylcholine receptor (Homo sapiens, UniProt P02708)?
result: 16

query: Which measured Binding affinity belongs to 6mer-1-628 (RRENEK) , tested on acetylcholine receptor (Homo sapiens, UniProt P02708)?
result: 23

query: Give recorded Binding affinity with acetylcholine receptor (Homo sapiens, UniProt P02708) for the following substance: 6mer-1-701 (RRKTWR)
result: 13

query: # query: Binding affinity | item 6mer-1-615 (KKTSER) | system: acetylcholine receptor (Homo sapiens, UniProt P02708)
result: 18

query: Test system acetylcholine receptor (Homo sapiens, UniProt P02708); read-out Binding affinity; what value for 6mer-1-655 (RKNMFR) ?
result: 12

query: Which measured Binding affinity belongs to 6mer-1-769 (RKMPVK) , tested on acetylcholine receptor (Homo sapiens, UniProt P02708)?
result: 14
